- Experimental target: memapsin 2 (Cricetulus griseus, UniProt G3IAK4)
- Construct: endogenous in cells; host or cells: Chinese hamster ovary cells over-expressing human APP695 (London + Swedish)
- Sequence (G3IAK4 22-501): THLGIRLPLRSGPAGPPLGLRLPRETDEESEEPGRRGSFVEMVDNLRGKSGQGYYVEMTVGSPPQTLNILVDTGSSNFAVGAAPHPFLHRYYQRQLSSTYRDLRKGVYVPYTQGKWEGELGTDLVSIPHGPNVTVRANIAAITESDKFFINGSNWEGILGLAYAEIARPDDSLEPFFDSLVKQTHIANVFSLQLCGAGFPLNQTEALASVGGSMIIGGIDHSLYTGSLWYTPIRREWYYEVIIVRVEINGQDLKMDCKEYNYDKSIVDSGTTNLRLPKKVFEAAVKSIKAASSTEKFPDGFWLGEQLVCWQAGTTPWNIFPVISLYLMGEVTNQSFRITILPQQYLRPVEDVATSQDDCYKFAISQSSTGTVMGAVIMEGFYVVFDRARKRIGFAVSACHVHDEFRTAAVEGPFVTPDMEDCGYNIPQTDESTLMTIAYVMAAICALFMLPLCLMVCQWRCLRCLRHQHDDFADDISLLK
- Test description: Cellular Aβ IC50 determination (Aβ40 sandwich ELISA)
- Format: cell-based
- Test parameters: Chinese hamster ovary cells over-expressing human APP695 with London and Swedish mutations, 24 h
pIC50: −log10 of the molar value.
Please go through the items and note down their pIC50.

Could you tell me pIC50 for each of these molecules? They are listed below.
1. CCC(Cc1nc(C)cs1)C(=O)NC(CNC(=O)OC(C)(C)C)C(=O)NC(CC(C)C)C(O)CC(C)C(=O)NC(C(=O)NCC(C)C)C(C)C (stereo not drawn)
2. CCC(Cn1nc(C)cc1C)C(=O)NC(CNC(=O)OC(C)(C)C)C(=O)NC(CC(C)C)C(O)CC(C)C(=O)NC(C(=O)NCc1ccccn1)C(C)C (stereo not drawn)
3. Cc1csc(COC(=O)NCC(NC(=O)C(C)Cc2nc(C)cs2)C(=O)NC(CC(C)C)C(O)CC(C)C(=O)NC(C(=O)NCC(C)C)C(C)C)n1 (stereo not drawn)
4. Cc1csc(COC(=O)N[C@@H](CNC(=O)OC(C)(C)C)C(=O)N[C@@H](CC(C)C)[C@@H](O)C[C@@H](C)C(=O)N[C@H](C(=O)NCC(C)C)C(C)C)n1
5. Cc1csc(CC(C)C(=O)NC(CN(C)S(C)(=O)=O)C(=O)NC(CC(C)C)C(O)CC(C)C(=O)NC(C(=O)NCC(C)C)C(C)C)n1 (stereo not drawn)
6. Cc1csc(CC(C)C(=O)NC(CNC(=O)OC(C)(C)C)C(=O)NC(CC(C)C)C(O)CC(C)C(=O)NC(C(=O)NN(C)C)C(C)C)n1 (stereo not drawn)

1. > 5.22
2. 4.00 to 5.22
3. > 5.22
4. < 4.00
5. 4.00 to 5.22
6. > 5.22
